TEST SYSTEM: human MCH-1R (human, UniProt Q99705 1-353)
Sequence (Q99705 whole entry, form in doubt): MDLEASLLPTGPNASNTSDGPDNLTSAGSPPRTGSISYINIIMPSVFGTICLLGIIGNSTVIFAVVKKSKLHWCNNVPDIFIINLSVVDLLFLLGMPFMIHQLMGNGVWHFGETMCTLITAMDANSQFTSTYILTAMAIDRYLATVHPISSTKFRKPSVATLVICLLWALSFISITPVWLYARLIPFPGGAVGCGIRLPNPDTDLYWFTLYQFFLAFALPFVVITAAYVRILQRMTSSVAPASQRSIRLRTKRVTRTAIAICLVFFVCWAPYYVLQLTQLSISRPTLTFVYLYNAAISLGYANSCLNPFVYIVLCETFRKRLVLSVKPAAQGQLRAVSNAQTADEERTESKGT
RUN DESCRIPTION: cell-based or functional assay
Bridges are numbered along the chain shown (N, C = ends). Where no end group is shown, it is not given here.
MEASURE NAME: Activation % at 10 µM (aequorin functional assay) (%)
The answer is to be given in %; state only the numeric part.

For DFDMLRCMLGAVYRPCWQV (disulfide 7-16) [SEQ. ID. NO. 49] , what is its reported Activation % at 10 µM (aequorin functional assay)? 24
